test.system: HLA-A*02:02
assay.remarks: IEDB peptide-MHC binding, purified MHC/competitive/radioactivity; bounds were set here for any values at or beyond the usual limits of such assays
settings: source organism: Vaccinia virus WR
pIC50: −log10 of the molar value.
A collection of sequences and their measured pIC50
parameter: pIC50

residues=FLTSVINRV test_system=HLA-A*02:02 parameter=pIC50 assay_value=9.96
residues=NLFDIPLLTV test_system=HLA-A*02:02 parameter=pIC50 assay_value=10.00
residues=ILDDNLYKV test_system=HLA-A*02:02 parameter=pIC50 assay_value=8.35
residues=FLNISWFYI test_system=HLA-A*02:02 parameter=pIC50 assay_value=9.77
residues=GLNDYLHSV test_system=HLA-A*02:02 parameter=pIC50 assay_value=9.13

====

test.system: HLA-A*03:01
assay.remarks: IEDB peptide-MHC binding, purified MHC/competitive/radioactivity; bounds were set here for any values at or beyond the usual limits of such assays
settings: source organism: Vaccinia virus WR
Threshold-based label: IC50 under 80 nM gives rule met, IC50 not under 80 nM gives rule not met.

residues=AVKDVTITKK discrete_label="rule not met"
residues=GTIAGGVCYY discrete_label="rule not met"
residues=KVLHVTDTNK discrete_label="rule met"
residues=NQVKFYFNK discrete_label="rule not met"
residues=AVFKDSFLRK discrete_label="rule met"
residues=YLLVKWYRK discrete_label="rule met"

====

test.system: HLA-A*68:01
assay.remarks: IEDB peptide-MHC binding, purified MHC/competitive/radioactivity; filed as Kd, often an IC50 or EC50 that approximates it; bounds were set here for any values at or beyond the usual limits of such assays
settings: source organism: Vaccinia virus WR
parameter: Kd

residues=YLLVKWYRK assay_value="≥ 50 µM"
residues=KLKIISNDYK assay_value="≥ 50 µM"
residues=ATSLDVINY assay_value="≥ 50 µM"

====

test.system: HLA-A*26:01
assay.remarks: IEDB peptide-MHC binding, purified MHC/competitive/radioactivity; filed as Kd, often an IC50 or EC50 that approximates it; bounds were set here for any values at or beyond the usual limits of such assays
settings: source organism: Vaccinia virus WR
pKd: −log10 of the molar value.
A collection of sequences and their measured pKd
parameter: pKd

residues=QSDTVFDYY test_system=HLA-A*26:01 parameter=pKd value_modifier=≤ assay_value=4.30
residues=VTDTNKFDNY test_system=HLA-A*26:01 parameter=pKd value_modifier=≤ assay_value=4.30
residues=FLSMLNLTKY test_system=HLA-A*26:01 parameter=pKd value_modifier== assay_value=5.11
residues=SQSDTVFDY test_system=HLA-A*26:01 parameter=pKd value_modifier== assay_value=5.73
residues=VSVNNVCHMY test_system=HLA-A*26:01 parameter=pKd value_modifier== assay_value=5.37
